Data origin: patent US20230174596A1

Would you kindly list ELISA for each of these binders?
Target: T1, hVEGF-A (8-109) (human, UniProt P15692 214-315)
T1 construct: residue numbers count on mature VEGF-A; dimer
T1 sequence (looked up): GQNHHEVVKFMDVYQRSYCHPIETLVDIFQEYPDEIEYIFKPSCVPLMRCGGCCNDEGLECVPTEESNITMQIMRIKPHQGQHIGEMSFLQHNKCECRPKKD
Assay: spot phage ELISA
In your answer, state the number alone without any accompanying words.

Q. Report ELISA for GCKLLQPMWGCKQDSDCLAGCVCRWYQSCG (designed binder) [VEGF_CKP9.14] please.
A. 2

Q. Name the recorded ELISA for GCETDWYPHQIDCKQDSDCLAGCVCGPNGFCG (designed binder) [VEGF_CKP1] .
A. 0.9

Q. What does the data say about its ELISA? Entry: GCQLMQPFWGCKQDSDCLAGCVCRWYHSCG (designed binder) [VEGF_CKP9.L5.43]
A. 0.9
